biological target: CXCR4 receptor (human, UniProt P61073 1-352); assay: cell-based or functional assay
Sequence (P61073 whole entry): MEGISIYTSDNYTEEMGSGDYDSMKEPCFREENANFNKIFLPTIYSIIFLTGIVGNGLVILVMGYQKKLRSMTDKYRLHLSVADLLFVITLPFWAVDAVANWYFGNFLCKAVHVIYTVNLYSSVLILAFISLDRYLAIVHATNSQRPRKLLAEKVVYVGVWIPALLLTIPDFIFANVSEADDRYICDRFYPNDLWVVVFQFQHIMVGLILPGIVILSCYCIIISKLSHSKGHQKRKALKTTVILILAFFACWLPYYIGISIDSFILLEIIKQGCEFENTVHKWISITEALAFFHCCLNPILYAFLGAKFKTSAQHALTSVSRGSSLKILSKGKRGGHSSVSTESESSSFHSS
Ends that are not written are not given here. * marks the point of attachment. C27H50N3O2SC(O)‑ = not defined here; Palmitoyl = CCCCCCCCCCCCCCCC(=O)*
ENDPOINT: AUC (% of vehicle), chemotaxis, CEM, 1.0 uM

Solved cases below.
BINDER: Palmitoyl-HSKGHQKRKALKT-NH2 (SMILES CCCCCCCCCCCCCCCC(=O)N[C@@H](Cc1c[nH]cn1)C(=O)N[C@@H](CO)C(=O)N[C@@H](CCCCN)C(=O)NCC(=O)N[C@@H](Cc1c[nH]cn1)C(=O)N[C@@H](CCC(N)=O)C(=O)N[C@@H](CCCCN)C(=O)N[C@@H](CCCNC(=N)N)C(=O)N[C@@H](CCCCN)C(=O)N[C@@H](C)C(=O)N[C@@H](CC(C)C)C(=O)N[C@@H](CCCCN)C(=O)N[C@H](C(N)=O)[C@@H](C)O) [CXCR4 i3 loop compound 97]
RESULT: 48.9 % of vehicle

BINDER: Palmitoyl-SHSKGHQKRKALK-NH2 (SMILES CCCCCCCCCCCCCCCC(=O)N[C@@H](CO)C(=O)N[C@@H](Cc1c[nH]cn1)C(=O)N[C@@H](CO)C(=O)N[C@@H](CCCCN)C(=O)NCC(=O)N[C@@H](Cc1c[nH]cn1)C(=O)N[C@@H](CCC(N)=O)C(=O)N[C@@H](CCCCN)C(=O)N[C@@H](CCCNC(=N)N)C(=O)N[C@@H](CCCCN)C(=O)N[C@@H](C)C(=O)N[C@@H](CC(C)C)C(=O)N[C@@H](CCCCN)C(N)=O) [CXCR4 i3 loop compound 96]
RESULT: 34.2 % of vehicle

BINDER: {C27H50N3O2SC(O)‑}-HSKGHQKRKQALK-NH2 (reading uncertain) [CXCR4 i3 loop compound 87]
RESULT: 52.6 % of vehicle

Dear colleague, could you send me AUC (% of vehicle), chemotaxis, CEM, 1.0 uM for each of the items below? Thanks.
1. IIISKLSHSKGHQKRKALKT-NH2 (not fully specified (N-terminus); also: dual lipid, backbone lipid not given here) [CXCR4 i3 loop compound 103]
2. Palmitoyl-HSKGHQKRKALKTTV-NH2 (SMILES CCCCCCCCCCCCCCCC(=O)N[C@@H](Cc1c[nH]cn1)C(=O)N[C@@H](CO)C(=O)N[C@@H](CCCCN)C(=O)NCC(=O)N[C@@H](Cc1c[nH]cn1)C(=O)N[C@@H](CCC(N)=O)C(=O)N[C@@H](CCCCN)C(=O)N[C@@H](CCCNC(=N)N)C(=O)N[C@@H](CCCCN)C(=O)N[C@@H](C)C(=O)N[C@@H](CC(C)C)C(=O)N[C@@H](CCCCN)C(=O)N[C@H](C(=O)N[C@H](C(=O)N[C@H](C(N)=O)C(C)C)[C@@H](C)O)[C@@H](C)O) [CXCR4 i3 loop compound 99]

stdout:
1. 26.3 % of vehicle
2. 45 % of vehicle

Data credit: patent US20130210709A1
